molecular target: Dual specificity mitogen-activated protein kinase kinase 2 (Homo sapiens); also: in the data inactive means no Kd found up to 30 µM
Sequence (P36507 whole entry): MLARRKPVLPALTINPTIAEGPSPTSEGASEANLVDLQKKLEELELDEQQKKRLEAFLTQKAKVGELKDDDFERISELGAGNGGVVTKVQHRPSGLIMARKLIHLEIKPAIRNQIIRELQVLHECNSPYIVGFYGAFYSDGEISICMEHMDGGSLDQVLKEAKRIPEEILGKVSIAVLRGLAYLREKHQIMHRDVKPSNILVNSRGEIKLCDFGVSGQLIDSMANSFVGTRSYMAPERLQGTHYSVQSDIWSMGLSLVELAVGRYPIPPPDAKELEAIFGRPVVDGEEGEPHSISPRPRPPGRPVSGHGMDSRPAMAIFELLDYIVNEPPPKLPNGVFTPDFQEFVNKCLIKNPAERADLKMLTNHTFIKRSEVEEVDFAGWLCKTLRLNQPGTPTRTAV
Calls of active or inactive are those of the source.
Response enum: yes (1) for active, no (0) for inactive

For this compound, state the assay outcome: `COc1cccc2cc(-c3nc([C@H]4CC[C@H](C(=O)O)CC4)n4ncnc(N)c34)[nH]c12` no (0)

Write down the call the test reported for this compound. Item: `C=CCN(/C=C1/C(=O)O[C@H](COC)[C@@]2(C)C1=C(O)C(=O)C1=C2[C@H](OC(C)=O)C[C@]2(C)C(=O)CC[C@@H]12)CC=C` no (0)

What is the recorded call for this compound in the test? `CC1(COc2ccc3c(c2)ncn3-c2ccc3cccc(N4CCC(N)CC4)c3n2)COC1` no (0)

Record lookup: outcome of this test for `C=CC(=O)Nc1cccc(Nc2nc(Nc3ccc(N4CCN(C(C)=O)CC4)cc3OC)ncc2C(F)(F)F)c1` ? no (0)

In this assay, the call recorded for COc1ccc(-c2ccc3ncc4c(c3c2)n(-c2ccc(N3CCNCC3)c(C(F)(F)F)c2)c(=O)n4C)cn1 [BGT-226 FREE BASE] was what? no (0)

Assay outcome for `O=C(NC[C@H](O)CO)c1ccncc1Nc1ccc(I)cc1F` : what was it? yes (1)

Recorded test call requested for `CC(C)CC(=O)Nc1[nH]nc2c1CN(C(=O)C1CCN(C)CC1)C2(C)C` no (0)

----------
target: Cyclin-dependent kinase 12 (Homo sapiens, UniProt Q9NYV4); also: in the data inactive means no Kd found up to 30 µM
Sequence (Q9NYV4 whole entry): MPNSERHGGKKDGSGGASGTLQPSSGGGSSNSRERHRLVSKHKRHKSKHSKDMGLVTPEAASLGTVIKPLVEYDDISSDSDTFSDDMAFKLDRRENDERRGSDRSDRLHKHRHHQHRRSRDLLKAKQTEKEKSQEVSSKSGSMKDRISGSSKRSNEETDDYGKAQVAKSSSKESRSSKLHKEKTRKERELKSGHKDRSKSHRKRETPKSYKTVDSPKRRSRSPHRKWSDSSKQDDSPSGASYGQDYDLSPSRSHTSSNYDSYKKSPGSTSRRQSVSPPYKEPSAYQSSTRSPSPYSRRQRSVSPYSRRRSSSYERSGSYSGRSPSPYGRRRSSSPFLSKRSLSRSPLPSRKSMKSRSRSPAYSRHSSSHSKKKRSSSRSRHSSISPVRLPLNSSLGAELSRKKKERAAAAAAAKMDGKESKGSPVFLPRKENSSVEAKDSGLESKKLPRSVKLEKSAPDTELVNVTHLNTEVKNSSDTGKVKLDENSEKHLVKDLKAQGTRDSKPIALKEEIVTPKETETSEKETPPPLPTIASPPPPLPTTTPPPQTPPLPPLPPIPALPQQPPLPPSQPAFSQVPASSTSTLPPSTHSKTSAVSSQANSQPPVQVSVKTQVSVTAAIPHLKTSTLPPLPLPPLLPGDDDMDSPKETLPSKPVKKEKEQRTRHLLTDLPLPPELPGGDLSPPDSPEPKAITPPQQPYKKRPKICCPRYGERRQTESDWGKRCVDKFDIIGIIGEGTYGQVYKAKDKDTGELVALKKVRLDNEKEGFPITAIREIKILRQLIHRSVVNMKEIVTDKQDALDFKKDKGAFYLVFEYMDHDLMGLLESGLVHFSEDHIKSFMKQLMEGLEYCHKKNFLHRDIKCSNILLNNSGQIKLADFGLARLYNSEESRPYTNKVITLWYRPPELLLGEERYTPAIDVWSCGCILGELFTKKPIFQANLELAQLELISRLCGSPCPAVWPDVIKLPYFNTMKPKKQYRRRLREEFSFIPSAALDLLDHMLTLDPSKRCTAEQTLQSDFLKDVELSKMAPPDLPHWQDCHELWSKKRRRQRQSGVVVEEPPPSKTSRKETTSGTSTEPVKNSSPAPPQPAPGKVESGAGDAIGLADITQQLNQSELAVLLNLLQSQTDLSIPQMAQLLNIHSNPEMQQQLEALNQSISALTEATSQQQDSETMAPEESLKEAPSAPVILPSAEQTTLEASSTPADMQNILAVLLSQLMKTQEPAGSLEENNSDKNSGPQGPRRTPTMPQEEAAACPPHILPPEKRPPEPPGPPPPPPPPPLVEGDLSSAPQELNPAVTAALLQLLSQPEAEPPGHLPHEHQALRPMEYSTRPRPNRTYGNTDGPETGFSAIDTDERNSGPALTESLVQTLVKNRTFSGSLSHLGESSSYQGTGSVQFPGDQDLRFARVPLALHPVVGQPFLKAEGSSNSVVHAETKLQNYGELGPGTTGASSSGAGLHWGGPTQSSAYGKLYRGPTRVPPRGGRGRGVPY
Active and inactive are the calls of the source.
The categories you may choose from are yes (1) for active, no (0) for inactive

In this assay, the call recorded for Cc1ccc(C(=O)Nc2ccc(Oc3cc4cnn(C)c4cc3-c3cn[nH]c3)c(F)c2)c(=O)n1-c1ccc(F)cc1 [MERESTINIB] was what? no (0)

What was the test verdict on Cc1c(Cn2c(C)nc3c(C(=O)O)cc(N4CCOCC4)cc32)cccc1C(F)(F)F [GSK-2636771] ? no (0)

Field: outcome | Entry: Cn1cnc2c(F)c(Nc3ccc(Br)cc3Cl)c(C(=O)NOCCO)cc21 [SELUMETINIB] no (0)

I'd appreciate the recorded outcome for C[C@@H]1COC(Nc2ccc3ncnc(Nc4ccc(OCc5nccs5)c(Cl)c4)c3c2)=N1 [VARLITINIB] from this test. no (0)

What classification did CC1(COc2ccc3c(c2)ncn3-c2ccc3cccc(N4CCC(N)CC4)c3n2)COC1 [CRENOLANIB] end up with in this test? no (0)

Kindly provide the recorded test outcome for the following molecule: COc1cccc(Nc2ncnn3ccc(CN4CC[C@@H](N)[C@H](O)C4)c23)c1 [BMS-690514] no (0)

I'd appreciate the recorded outcome for C=CC(=O)Nc1cccc(Nc2nc(Nc3ccc(N4CCN(C(C)=O)CC4)cc3OC)ncc2C(F)(F)F)c1 [ROCILETINIB] from this test. no (0)

Hello, I am checking results. What call was entered for Cc1cc(C(=O)Nc2cc(Oc3ccc4nc(NC(=O)C5CC5)cn4n3)ccc2C)n(C)n1 [TAK-593] ? no (0)

Please share the test call associated with COCCN1CCN(Cc2ccc(-c3n[nH]c4c3C(=O)c3c(NC(=O)NN5CCOCC5)cccc3-4)cc2)CC1 [RGB-286638] . yes (1)

----------
molecular target: Glycogen synthase kinase-3 alpha (Homo sapiens); also: in the data inactive means no Kd found up to 30 µM
Sequence (P49840 whole entry): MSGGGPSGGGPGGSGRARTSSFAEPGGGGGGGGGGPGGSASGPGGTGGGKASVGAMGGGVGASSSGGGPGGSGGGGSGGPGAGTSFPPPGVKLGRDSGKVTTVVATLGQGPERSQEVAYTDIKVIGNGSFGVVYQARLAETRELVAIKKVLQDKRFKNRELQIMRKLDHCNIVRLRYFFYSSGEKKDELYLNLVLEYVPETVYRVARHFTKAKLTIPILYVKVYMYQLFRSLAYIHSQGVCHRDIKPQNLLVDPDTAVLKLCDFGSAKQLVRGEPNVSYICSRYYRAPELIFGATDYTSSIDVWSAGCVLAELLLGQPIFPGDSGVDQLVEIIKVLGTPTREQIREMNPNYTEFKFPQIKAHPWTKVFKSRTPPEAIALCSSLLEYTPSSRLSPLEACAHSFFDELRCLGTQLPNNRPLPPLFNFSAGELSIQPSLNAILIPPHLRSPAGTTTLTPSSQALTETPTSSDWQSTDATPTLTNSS
Calls of active or inactive are those of the source.
Field 'call' accepts 1 (active), 0 (inactive)

What was the test verdict on `COCCN1CCN(Cc2ccc(-c3n[nH]c4c3C(=O)c3c(NC(=O)NN5CCOCC5)cccc3-4)cc2)CC1` ? 1

So what was the verdict on `CCc1cc2c(cc1N1CCC(N3CCOCC3)CC1)C(C)(C)c1[nH]c3cc(C#N)ccc3c1C2=O` in this test? 0

Hi team, can someone confirm the assay call for `O=C(O)c1ccc2c(c1)nc(Nc1cccc(Cl)c1)c1ccncc12` ? 1

Please state the recorded outcome for this molecule: O=S(=O)(c1cccc2c(O)nccc12)N1CCCNCC1 [HYDROXYFASUDIL] 0

What is the recorded call for this molecule in the test? `Cc1c(NC(=O)OC[C@@H]2COCCN2)cn2ncnc(Nc3ccc4c(cnn4Cc4cccc(F)c4)c3)c12` 0

Test call, this molecule: `CN(c1ncccc1CNc1nc(Nc2ccc3c(c2)CC(=O)N3)ncc1C(F)(F)F)S(C)(=O)=O` 1

Per the assay record, what outcome was assigned to `C#Cc1cccc(Nc2ncnc3cc4c(cc23)OCCOCCOCCO4)c1` ? 0

# lookup: test call for COc1cc2nccc(Oc3ccc(NC(=O)C4(C(=O)Nc5ccc(F)cc5)CC4)cc3)c2cc1OC [CABOZANTINIB] 0

Look up the recorded call for `C=CC(=O)Nc1cc(Nc2nccc(-c3cn(C)c4ccccc34)n2)c(OC)cc1N(C)CCN(C)C` in this test. 0

Hello, I am checking results. What call was entered for `Cn1c(=O)c(F)c(Nc2ccc(I)cc2F)c2c(=O)n(C[C@@H](O)CO)cnc21` ? 0

Query: recorded result category for `CNC(=O)c1cccc(-c2ccc3c(N4CCOC[C@@H]4C)nc(N4CCOC[C@@H]4C)nc3n2)c1` in this test 0

Entry `Cc1cc(-c2cc(OC(=O)c3ccccc3)ccc2Cl)cc2nnc(Nc3ccc(OCCN4CCCC4)cc3)nc12` : call = ? 0

In this assay, the call recorded for `NC(=O)c1ccc(N(C(N)=O)c2c(F)cccc2F)nc1-c1ccc(F)cc1F` was what? 0

Any idea what this test logged for `O=C(NC[C@H](O)CO)c1ccncc1Nc1ccc(I)cc1F` ? 0

Look up the recorded call for `CC1(COc2ccc3c(c2)ncn3-c2ccc3cccc(N4CCC(N)CC4)c3n2)COC1` in this test. 0

What classification did `COc1cc2ncnc3c2cc1OCCCCCN(C)Cc1ccc(Br)cc1N3` end up with in this test? 0

Recorded test call requested for `Cc1ccc(C(=O)Nc2ccc(Oc3cc4cnn(C)c4cc3-c3cn[nH]c3)c(F)c2)c(=O)n1-c1ccc(F)cc1` 0

Given COc1ccc(-c2ccc3ncc4c(c3c2)n(-c2ccc(N3CCNCC3)c(C(F)(F)F)c2)c(=O)n4C)cn1 [BGT-226 FREE BASE] , state the outcome it received in this test. 1

Could you kindly confirm the outcome this assay logged for `CCN1CCN(Cc2ccc(Nc3ncc(F)c(-c4cc(F)c5nc(C)n(C(C)C)c5c4)n3)nc2)CC1` ? 1

Tell me the recorded outcome of this test for `NC[C@@](O)(c1ccc(Cl)cc1)c1ccc(-c2cn[nH]c2)cc1` . 0

Field: outcome | Entry: `CNC(=O)c1cc(COc2nnc(Nc3ccc(Cl)cc3)c3ccoc23)ccn1` 0

Would you mind telling me which call this test gave `S=C(NCc1ccc2c(c1)OCO2)N1CCN(c2ncnc3c2oc2ccccc23)CC1` ? 0

Fill in: this test's call for `O=C(NOC[C@H](O)CO)c1ccc(F)c(F)c1Nc1ccc(I)cc1F` is ___ 0

Call for entry `COc1cccc2cc(-c3nc([C@H]4CC[C@H](C(=O)O)CC4)n4ncnc(N)c34)[nH]c12` : 0

State the result this test recorded for `Cc1cc(C(=O)Nc2cc(Oc3ccc4nc(NC(=O)C5CC5)cn4n3)ccc2C)n(C)n1` . 0

Query: recorded result category for `COc1cc(Nc2ncc(F)c(Nc3ccc4c(n3)N(COP(=O)(O)O)C(=O)C(C)(C)O4)n2)cc(OC)c1OC` in this test 0

Write down the call the test reported for this molecule. Item: `COc1cccc(Nc2ncnn3ccc(CN4CC[C@@H](N)[C@H](O)C4)c23)c1` 0

Please let me know the test result on file for `c1cc(OCCN2CCCCC2)cc(-c2n[nH]c3ccc(-c4nc[nH]n4)cc23)c1` . 0

Hello, I am checking results. What call was entered for `COc1cc2ncnc(Nc3ccc(O)cc3)c2cc1OC` ? 0

Outcome logged for `N#CCNC(=O)c1ccc(-c2ccnc(Nc3ccc(N4CCOCC4)cc3)n2)cc1` in this assay: 0

Could you check what this test reported for `C[C@@H]1COC(Nc2ccc3ncnc(Nc4ccc(OCc5nccs5)c(Cl)c4)c3c2)=N1` ? 0

Which result was noted for this molecule in the test: `O=c1[nH]c([C@@H]2CCCN2)nc2c1oc1ccc(Cl)cc12` 0

Call for entry `Cc1c(Cn2c(C)nc3c(C(=O)O)cc(N4CCOCC4)cc32)cccc1C(F)(F)F` : 0

----------
Calls of active or inactive are those of the source.
Test system Myosin light chain kinase, smooth muscle (Homo sapiens), Kd listed for each of the compounds. Also: in the data inactive means no Kd found up to 30 µM.

Lab note: measured Kd of `O=C(O)c1ccc2c(c1)nc(Nc1cccc(Cl)c1)c1ccncc12` was > 30 µM (inactive)

The compound identified as `Cn1cc(-c2[nH]c3cc(NC(=O)[C@H](N)C4CCCCC4)cc4c3c2C=NNC4=O)cn1` registered its Kd at > 30 µM (inactive)

`Cc1c(NC(=O)OC[C@@H]2COCCN2)cn2ncnc(Nc3ccc4c(cnn4Cc4cccc(F)c4)c3)c12` has a reported Kd of > 30 µM (inactive)

Summary for this compound, `NC(=O)c1ccc(N(C(N)=O)c2c(F)cccc2F)nc1-c1ccc(F)cc1F` : Kd is 0.003 µM
